Where do these numbers come from? They come from patent USRE47689E1.

This section presents compounds with their documented melting point values.
MEASUREMENT LABEL: melting point

1. Cc1cccc2oc(-c3cc4ccc(N5C[C@@H](C)N[C@@H](C)C5)cc4oc3=O)nc12
243 to 245 °C
2. CN1CCCN(c2ccc3cc(-c4nc5ccccc5o4)c(=O)oc3c2)CC1
170 to 173 °C
3. C[C@H]1CN(c2cc(F)c3cc(-c4cn5cccc(Cl)c5n4)c(=O)oc3c2)CCN1
268 to 278 °C
4. C[C@H]1CN(c2ccc3cc(-c4ccc(F)cc4Cl)c(=O)oc3c2)CCN1
109 to 111 °C
5. CN1CCN(c2ccc3cc(-c4cn5cc(F)ccc5n4)c(=O)oc3c2)CC1
266 to 269 °C
6. Cc1ccc2nc(-c3cc4ccc(N5CCC(N)CC5)cc4oc3=O)cn2c1
250 to 252 °C
7. O=c1oc2cc(N3CCNCC3)cc(F)c2cc1-c1nc2c(F)cccc2o1
225 to 230 °C
8. Cc1ccn2cc(-c3cc4ccc(N[C@@H]5CCNC5)cc4oc3=O)nc2c1
244 to 254 °C
